- assay-notes: in vitro
- Type: cell-based
- settings: human
- Protocol: The present invention relates to methods of treating malaria with tetrahydrobenzonaphtyridine carboxanilide (TBN) derivatives and related pyrrolinones and hydrolysis products thereof. These compounds are active against Plasmodium falciparum strains that are resistant to multiple drugs currently on the market. […] A high-throughput screen performed against the Plasmodium parasite. […] The toxicity of the compounds was also measured by testing their lethality against a BJ cell line (human fibroblasts). […]
The following compounds are shown together with reported EC50 values.
observed-property: EC50

- compound: "O=C1c2c3c(nc4cc(Cl)ccc24)CCN(CCc2ccccc2)C3N1c1ccc(Cl)cc1 (centres unmarked)"
  value: "22.6 µM"
- compound: "O=C1c2c3c(nc4ccc(Cl)cc24)CCN(CCc2ccccc2)C3N1c1ccc(Cl)cc1 (centres unmarked)"
  value: "> 24 µM"
- compound: "O=C(Nc1ccc(Cl)cc1)c1c2c(nc3ccc(Cl)cc13)CCN(CCc1ccccc1)C2"
  value: "> 24 µM"
- compound: "COc1ccc(N2C(=O)c3c4c(nc5ccc(Cl)cc35)CCN(CCc3ccccc3)C42)cc1OC (centres unmarked)"
  value: "> 24 µM"
- compound: "O=C(Nc1ccc(Cl)cc1)c1c2c(nc3cc(Cl)ccc13)CCN(CCc1ccccc1)C2"
  value: "> 24 µM"
- compound: "O=C1c2c3c(nc4cc(Cl)ccc24)CCN(CCc2ccccc2)C3N1c1ccc(Br)cc1 (centres unmarked)"
  value: "15.2 µM"
- compound: "N#Cc1cc(N2C(=O)c3c4c(nc5cc(Cl)ccc35)CCN(CCc3ccccc3)C42)ccc1F (centres unmarked)"
  value: "> 24 µM"
- compound: "CC(c1ccccn1)N1CCc2nc3ccccc3c(C(=O)Nc3ccc(F)c(F)c3)c2C1 (centres unmarked)"
  value: "> 11.7 µM"
- compound: "O=C1c2c3c(nc4ccc(Cl)cc24)CCN(CCc2ccccc2)C3N1c1cccc(Cl)c1 (centres unmarked)"
  value: "> 24 µM"
- compound: "CN(C)C(=O)CCN1CCc2nc3ccccc3c(C(=O)Nc3ccc(F)c(F)c3)c2C1"
  value: "> 23.3 µM"
- compound: "O=C(Nc1cccc(Cl)c1)c1c2c(nc3cc(Cl)ccc13)CCN(CCc1ccccc1)C2"
  value: "> 24 µM"
- compound: "N#CCCN1CCc2nc3ccccc3c(C(=O)Nc3ccc(F)c(F)c3)c2C1"
  value: "> 23.3 µM"
- compound: "O=C1c2c3c(nc4ccc(Cl)cc24)CCN(CCc2ccccc2)C3N1c1ccc(Br)cc1 (centres unmarked)"
  value: "> 24 µM"
- compound: "COc1ccc(N2C(=O)c3c4c(nc5cc(Cl)ccc35)CCN(CCc3ccccc3)C42)cc1OC (centres unmarked)"
  value: "9.32 µM"
- compound: "COc1ccc(NC(=O)c2c3c(nc4ccc(Cl)cc24)CCN(CCc2ccccc2)C3)cc1OC"
  value: "> 24 µM"
- compound: "O=C(Nc1ccc(Br)cc1)c1c2c(nc3cc(Cl)ccc13)CCN(CCc1ccccc1)C2"
  value: "> 24 µM"
- compound: "COC(=O)CCN1CCc2nc3ccccc3c(C(=O)Nc3ccc(F)c(F)c3)c2C1"
  value: "> 23.3 µM"
- compound: "COc1ccc(NC(=O)c2c3c(nc4cc(Cl)ccc24)CCN(CCc2ccccc2)C3)cc1OC"
  value: "> 24 µM"
- compound: "C=CCN1CCc2nc3ccccc3c(C(=O)Nc3ccc(F)c(F)c3)c2C1"
  value: "> 23.3 µM"
- compound: "CC(C)(C)OC(=O)N1CCc2nc3ccccc3c(C(=O)Nc3ccc(F)c(F)c3)c2C1"
  value: "> 23.3 µM"
- compound: "CC(=O)O[C@H]1CO[C@H]2[C@@H]1OC[C@@H]2Oc1cccc(N2C(=O)c3c4c(nc5ccccc35)CCN(CCc3ccccc3)C42)c1 (some centres unmarked)"
  value: "> 24 µM"
- compound: "N#Cc1cc(NC(=O)c2c3c(nc4cc(Cl)ccc24)CCN(CCc2ccccc2)C3)ccc1F"
  value: "> 24 µM"
- compound: "CCOCCN1CCc2nc3ccccc3c3c2C1N(c1ccc(F)c(F)c1)C3=O (centres unmarked)"
  value: "> 24 µM"
